Test system: Staphylococcus aureus S13E
Assay type: cell-based
MIC values by entry
Give the number; µg/mL is assumed, so skip it.

1) CC(C)CC(C(=O)NC1C(=O)NC(CC(N)=O)C(=O)NC2C(=O)NC3C(=O)NC(C(=O)NC(C(=O)O)c4cc(O)cc(O)c4-c4cc3ccc4O)C(OC3CC(C)(N)C(O)C(C)O3)c3ccc(c(Cl)c3)Oc3cc2cc(c3OC2OC(CO)C(O)C(O)C2OC2CC(C)(NCc3ccc4c(c3)OCO4)C(O)C(C)O2)Oc2ccc(cc2Cl)C1O)N(C)Cc1ccc2c(c1)OCO2 (centres unmarked) [Compound 265] | 0.5
2) CNC(CC(C)C)C(=O)NC1C(=O)NC(CC(N)=O)C(=O)NC2C(=O)NC3C(=O)NC(C(=O)NC(C(=O)O)c4cc(O)cc(O)c4-c4cc3ccc4O)C(OC3CC(C)(N)C(O)C(C)O3)c3ccc(c(Cl)c3)Oc3cc2cc(c3OC2OC(CO)C(O)C(O)C2OC2CC(C)(NCc3ccc(N4CCCCC4C)cc3)C(O)C(C)O2)Oc2ccc(cc2Cl)C1O (centres unmarked) [Compound 135] | 1

Field: next compound
Value sought: MIC, system Staphylococcus aureus S13E, item CNC(CC(C)C)C(=O)NC1C(=O)NC(CC(N)=O)C(=O)NC2C(=O)NC3C(=O)NC(C(=O)NC(C(=O)O)c4cc(O)cc(O)c4-c4cc3ccc4O)C(OC3CC(C)(N)C(O)C(C)O3)c3ccc(c(Cl)c3)Oc3cc2cc(c3OC2OC(CO)C(O)C(O)C2OC2CC(C)(NCCCCCCc3ccccc3)C(O)C(C)O2)Oc2ccc(cc2Cl)C1O (centres unmarked) [Compound 196] . Result: 1

---

System: Staphylococcus aureus S13E
Format: cell-based
Procedure: The MIC's were determined using a standard broth micro-dilution assay.
result-type: MIC

1) CNC(CC(C)C)C(=O)NC1C(=O)NC(CC(N)=O)C(=O)NC2C(=O)NC3C(=O)NC(C(=O)NC(C(=O)O)c4cc(O)cc(O)c4-c4cc3ccc4O)C(OC3CC(C)(N)C(O)C(C)O3)c3ccc(c(Cl)c3)Oc3cc2cc(c3OC2OC(CO)C(O)C(O)C2OC2CC(C)(NCc3ccc(-c4ccc(C)cc4)cc3C)C(O)C(C)O2)Oc2ccc(cc2Cl)C1O (stereo not drawn) | ≤ 0.06 µg/mL
2) CNC(CC(C)C)C(=O)NC1C(=O)NC(CC(N)=O)C(=O)NC2C(=O)NC3C(=O)NC(C(=O)NC(C(=O)O)c4cc(O)cc(O)c4-c4cc3ccc4O)C(OC3CC(C)(N)C(O)C(C)O3)c3ccc(c(Cl)c3)Oc3cc2cc(c3OC2OC(CO)C(O)C(O)C2OC2CC(C)(NCc3cccc(OCC4CCCCC4)c3)C(O)C(C)O2)Oc2ccc(cc2Cl)C1O (stereo not drawn) | ≤ 0.06 µg/mL

Field: next compound
Memo: CNC(CC(C)C)C(=O)NC1C(=O)NC(CC(N)=O)C(=O)NC2C(=O)NC3C(=O)NC(C(=O)NC(C(=O)O)c4cc(O)cc(O)c4-c4cc3ccc4O)C(OC3CC(C)(N)C(O)C(C)O3)c3ccc(c(Cl)c3)Oc3cc2cc(c3OC2OC(CO)C(O)C(O)C2OC2CC(C)(NCc3ccc(-c4ccccc4)cc3)C(O)C(C)O2)Oc2ccc(cc2)C1O (stereo not drawn) , reported MIC: ≤ .06 µg/mL

---

System: vancomycin-susceptible enterococci
measurement-description: broth micro-dilution, mean geometric MIC
Assay type: cell-based, Enterococcus faecium and Enterococcus faecalis
condition-details: enterococci, 24-hour incubation
result-type: mean geometric MIC, Vancomycin Sensitive Strains (µg/mL)
Give the number; µg/mL is assumed, so skip it.

1) CC(C)CC(C(=O)NC1C(=O)NC(CC(N)=O)C(=O)NC2C(=O)NC3C(=O)NC(C(=O)NC(C(=O)O)c4cc(O)cc(O)c4-c4cc3ccc4O)C(OC3CC(C)(N)C(O)C(C)O3)c3ccc(c(Cl)c3)Oc3cc2cc(c3OC2OC(CO)C(O)C(O)C2OC2CC(C)(NCc3ccc(-c4ccccc4)cc3)C(O)C(C)O2)Oc2ccc(cc2Cl)C1O)N(C)Cc1ccc(-c2ccccc2)cc1 (centres unmarked) | 0.66

Memo: CNC(CC(C)C)C(=O)NC1C(=O)NC(CC(N)=O)C(=O)NC2C(=O)NC3C(=O)NC(C(=O)NC(C(=O)O)c4cc(O)cc(O)c4-c4cc3ccc4O)C(OC3CC(C)(N)C(O)C(C)O3)c3ccc(c(Cl)c3)Oc3cc2cc(c3OC2OC(CO)C(O)C(O)C2OC2CC(C)(NCc3ccc(OCCCC#N)cc3)C(O)C(C)O2)Oc2ccc(cc2Cl)C1O (centres unmarked) , reported mean geometric MIC, Vancomycin Sensitive Strains: 1.7

Memo: CNC(CC(C)C)C(=O)NC1C(=O)NC(CC(N)=O)C(=O)NC2C(=O)NC3C(=O)NC(C(=O)NC(C(=O)O)c4cc(O)cc(O)c4-c4cc3ccc4O)C(OC3CC(C)(NCc4ccc(SC)cc4)C(O)C(C)O3)c3ccc(c(Cl)c3)Oc3cc2cc(c3OC2OC(CO)C(O)C(O)C2OC2CC(C)(NCc3ccc(SC)cc3)C(O)C(C)O2)Oc2ccc(cc2Cl)C1O (centres unmarked) , reported mean geometric MIC, Vancomycin Sensitive Strains: 0.29

Memo: CNC(CC(C)C)C(=O)NC1C(=O)NC(CC(N)=O)C(=O)NC2C(=O)NC3C(=O)NC(C(=O)NC(C(=O)O)c4cc(O)cc(O)c4-c4cc3ccc4O)C(OC3CC(C)(N)C(O)C(C)O3)c3ccc(c(Cl)c3)Oc3cc2cc(c3OC2OC(CO)C(O)C(O)C2OC2CC(C)(NCc3ccc(OCCCCCCc4ccccc4)cc3)C(O)C(C)O2)Oc2ccc(cc2Cl)C1O (centres unmarked) , reported mean geometric MIC, Vancomycin Sensitive Strains: 0.044

Memo: CC(C)CC(C(=O)NC1C(=O)NC(CC(N)=O)C(=O)NC2C(=O)NC3C(=O)NC(C(=O)NC(C(=O)O)c4cc(O)cc(O)c4-c4cc3ccc4O)C(OC3CC(C)(NCc4ccc(-c5ccc(Cl)cc5)cc4)C(O)C(C)O3)c3ccc(c(Cl)c3)Oc3cc2cc(c3OC2OC(CO)C(O)C(O)C2OC2CC(C)(NCc3ccc(-c4ccc(Cl)cc4)cc3)C(O)C(C)O2)Oc2ccc(cc2Cl)C1O)N(C)Cc1ccc(-c2ccc(Cl)cc2)cc1.O=C(O)C(F)(F)F (centres unmarked) , reported mean geometric MIC, Vancomycin Sensitive Strains: 32

---

Test system: vancomycin-resistant enterococci
measurement-description: broth micro-dilution, mean geometric MIC
Assay type: cell-based, Enterococcus faecium and Enterococcus faecalis
condition-details: enterococci, 24-hour incubation
result-type: mean geometric MIC, Vancomycin Resistant Strains (µg/mL)
Give the number; µg/mL is assumed, so skip it.

Before answering, review these 2 worked examples.
1) CC(C)CC(C(=O)NC1C(=O)NC(CC(N)=O)C(=O)NC2C(=O)NC3C(=O)NC(C(=O)NC(C(=O)O)c4cc(O)cc(O)c4-c4cc3ccc4O)C(OC3CC(C)(N)C(O)C(C)O3)c3ccc(c(Cl)c3)Oc3cc2cc(c3OC2OC(CO)C(O)C(O)C2OC2CC(C)(NCc3ccc4c(c3)CCCC4)C(O)C(C)O2)Oc2ccc(cc2Cl)C1O)N(C)Cc1ccc2c(c1)CCCC2 (stereo not shown) [Compound 258] | 8
2) CNC(CC(C)C)C(=O)NC1C(=O)NC(CC(N)=O)C(=O)NC2C(=O)NC3C(=O)NC(C(=O)NC(C(=O)O)c4cc(O)cc(O)c4-c4cc3ccc4O)C(OC3CC(C)(N)C(O)C(C)O3)c3ccc(c(Cl)c3)Oc3cc2cc(c3OC2OC(CO)C(O)C(O)C2OC2CC(C)(NCC3CCC(Cc4ccccc4)CC3)C(O)C(C)O2)Oc2ccc(cc2Cl)C1O (stereo not shown) [Compound 241] | 1.4

Field: next compound
Value sought: mean geometric MIC, Vancomycin Resistant Strains, system vancomycin-resistant enterococci, item CNC(CC(C)C)C(=O)NC1C(=O)NC(CC(N)=O)C(=O)NC2C(=O)NC3C(=O)NC(C(=O)NC(C(=O)O)c4cc(O)cc(O)c4-c4cc3ccc4O)C(OC3CC(C)(N)C(O)C(C)O3)c3ccc(c(Cl)c3)Oc3cc2cc(c3OC2OC(CO)C(O)C(O)C2OC2CC(C)(NCc3ccc4c(c3)CCCC4)C(O)C(C)O2)Oc2ccc(cc2Cl)C1O (stereo not shown) [Compound 168] . Result: 3.4

---

Test system: Streptococcus pyogenes C203
measurement-description: broth micro-dilution MIC
Type: cell-based
Experimental: The MIC's were determined using a standard broth micro-dilution assay.
MIC values by entry

1) CNC(CC(C)C)C(=O)NC1C(=O)NC(CC(N)=O)C(=O)NC2C(=O)NC3C(=O)NC(C(=O)NC(C(=O)O)c4cc(O)cc(O)c4-c4cc3ccc4O)C(OC3CC(C)(N)C(O)C(C)O3)c3ccc(c(Cl)c3)Oc3cc2cc(c3OC2OC(CO)C(O)C(O)C2OC2CC(C)(NCc3ccc(CCc4ccccc4)cc3)C(O)C(C)O2)Oc2ccc(cc2Cl)C1O (stereo not drawn) [Compound 100] | ≤ 0.06 µg/mL
2) CCCCCCCCOc1ccc(-c2ccc(CNC3(C)CC(OC4C(Oc5c6cc7cc5Oc5ccc(cc5Cl)C(OC5CC(C)(N)C(O)C(C)O5)C5NC(=O)C(NC(=O)C7NC(=O)C(CC(N)=O)NC(=O)C(NC(=O)C(CC(C)C)NC)C(O)c7ccc(c(Cl)c7)O6)c6ccc(O)c(c6)-c6c(O)cc(O)cc6C(C(=O)O)NC5=O)OC(CO)C(O)C4O)OC(C)C3O)cc2)cc1 (stereo not drawn) [Compound 23] | 1 µg/mL

Field: next molecule
Value sought: MIC, system Streptococcus pyogenes C203, item CNC(CC(C)C)C(=O)NC1C(=O)NC(CC(N)=O)C(=O)NC2C(=O)NC3C(=O)NC(C(=O)NC(C(=O)O)c4cc(O)cc(O)c4-c4cc3ccc4O)C(OC3CC(C)(N)C(O)C(C)O3)c3ccc(c(Cl)c3)Oc3cc2cc(c3OC2OC(CO)C(O)C(O)C2OC2CC(C)(NCc3ccc(Oc4ccc([N+](=O)[O-])cc4)cc3)C(O)C(C)O2)Oc2ccc(cc2Cl)C1O (stereo not drawn) [Compound 57] . Result: ≤ 0.06 µg/mL
